These measurements were taken from ChEMBL document CHEMBL4665642.

System: SK-MEL-28
assay.comment: Cytotoxicity against human SK-MEL-28 cells assessed as cell viability at 10 uM incubated for 48 hrs by sulforhodamine B assay relative to control
Assay type: functional
experimental.conditions: read-out: Activity
metric: viability at 10 µM

Here is how some compounds turned out for viability at 10 µM.
>>> result("O=S(=O)(NCCNc1nccc(-c2c(-c3cccc(F)c3)nc3sccn23)n1)c1ccccc1")
"54.3%"
>>> result("O=S(=O)(NCCCNc1nccc(-c2c(-c3cccc(F)c3)nc3sccn23)n1)c1cccc2ccccc12")
"77.5%"

As a next step, examine the compound that follows.
-- ask Which viability at 10 µM is reported with SK-MEL-28 for this entry: O=C(NCCNc1nccc(-c2c(-c3cccc(F)c3)nc3sccn23)n1)c1c(F)cccc1F ?
-- reply 51.1%

###

The entries below come with measured viability at 10 µM values attached.
System: CCRF-CEM
assay.comment: Cytotoxicity against human CCRF-CEM cells assessed as cell viability at 10 uM incubated for 48 hrs by sulforhodamine B assay relative to control
Assay type: functional
experimental.conditions: read-out: Activity
The response must be a number in % with no trailing unit.

-- ask Please give the measured viability at 10 µM for this compound: O=C(NCCNc1nccc(-c2c(-c3cccc(F)c3)nc3sccn23)n1)C1CCCCC1
-- reply 70

-- ask Please give the measured viability at 10 µM for this compound: O=C(NCCNc1nccc(-c2c(-c3cccc(F)c3)nc3sccn23)n1)c1ccccc1
-- reply 40.9

-- ask Please give the measured viability at 10 µM for this compound: O=C(NCCCNc1nccc(-c2c(-c3cccc(F)c3)nc3sccn23)n1)C1CCCCC1
-- reply 73.2

-- ask Please give the measured viability at 10 µM for this compound: O=S(=O)(NCCNc1nccc(-c2c(-c3cccc(F)c3)nc3sccn23)n1)c1ccc(C(F)(F)F)cc1
-- reply 80.6

-- ask Please give the measured viability at 10 µM for this compound: O=S(=O)(NCCCNc1nccc(-c2c(-c3cccc(F)c3)nc3sccn23)n1)c1ccc(Br)cc1
-- reply 36.8

-- ask Please give the measured viability at 10 µM for this compound: O=S(=O)(NCCNc1nccc(-c2c(-c3cccc(F)c3)nc3sccn23)n1)c1cccc2ccccc12
-- reply 93.9

-- ask Please give the measured viability at 10 µM for this compound: O=C(NCCCNc1nccc(-c2c(-c3cccc(F)c3)nc3sccn23)n1)c1ccc(F)cc1
-- reply 75.9

-- ask Please give the measured viability at 10 µM for this compound: O=S(=O)(NCCCNc1nccc(-c2c(-c3cccc(F)c3)nc3sccn23)n1)c1cccc(F)c1
-- reply 24.7

###

Test system: NCI-H23
assay.comment: Cytotoxicity against human NCI-H23 cells assessed as cell viability at 10 uM incubated for 48 hrs by sulforhodamine B assay relative to control
Type: functional
experimental.conditions: read-out: Activity
metric: viability at 10 µM (%)
The response must be a number in % with no trailing unit.

>>> result_number("O=C(NCCNc1nccc(-c2c(-c3cccc(F)c3)nc3sccn23)n1)C1CCCCC1")
97
>>> result_number("O=C(NCCNc1nccc(-c2c(-c3cccc(F)c3)nc3sccn23)n1)c1ccc(C(F)(F)F)cc1")
80
>>> result_number("O=S(=O)(NCCCNc1nccc(-c2c(-c3cccc(F)c3)nc3sccn23)n1)c1ccccc1")
76.9

As a next step, examine the molecule that follows.
-- ask Please give the measured viability at 10 µM for this molecule: O=S(=O)(NCCCNc1nccc(-c2c(-c3cccc(F)c3)nc3sccn23)n1)c1cccc(F)c1
-- reply 38.8
